Listed binders paired with reported pEC50
Molecular target: T1, full length human GLP-1R with N-terminal FLAG tag and C-terminal GFP tag, on CHO cells (human, UniProt P43220 24-463)
T1 construct: whole, on cells; the cell line itself is tied to UniProt P43220; also called FLAG-GLP-1R-GFP; CHO-GLP-1R
Test: flow cytometry titration, CHO GLP1R cells
Experimental: GLP-1R IgG clones were tested in a binding assay coupled to flow cytometry analysis as follows: FLAG-GLP-1R-GFP expressing CHO cells (CHO-GLP-1R) and CHO-parent cells were incubated with 100 nM IgG for 1 h on ice, washed three times and incubated with Alexa 647 conjugated goat-anti-human antibody (1:200) (Jackson ImmunoResearch Laboratories, 109-605-044) for 30 min on ice, followed by three washes, centrifuging to pellet the cells between each washing step. […]
The quantity pEC50 is defined as the negative base-10 logarithm of the molar concentration.

Reference set (4 entries):
| BINDER | pEC50 |
| --- | --- |
| GLP1R-222-023 (antibody, V domains shown, IgG) VH: QVQLVESGGGVVQPGRSLRLSCAASGFSFSDYGMHWVRQAPGKGLEWVAFISYDANNKYYADSVKGRFTISRDNSKNTLYLQMNSLRAEDTAVYYCAKHMSMQEGAVTGEWQAAKEFIAWLVKGRVRADLVGDAFDVWGQGTLVTVSS VL: QSVLTQPPSVSAAPGQKVTISCSGSSSNIGNNDVSWYQQLPGTAPKLLIYENTKRPSGIPDRFSGSKSGTSATLGITGLQTGDEADYYCGTWDAGLSTGVFGGGTKLTVL | 7.74 |
| GLP1R-3 (antibody, human IgG2, lambda, V domains shown, full length human IgG2; also called GLP1R01-3) VH: QVQLVESGGGVVQPGRSLRLSCAASGFTFSSYGMHWVRQAPGKGLEWVSFISYDESNKYYADSVKGRFTISRDNSKNTLYLQMNSLRAEDTAVYYCAKHMSMQEGAVTGEGQAAKEFIAWLVKGRVRADLVGDAFDVWGQGTLVTVSS VL: QSVLTQPPSVSAAPGQKVTISCSGSSSNIADNYVSWYQQLPGTAPKLLIYDNNKRPSGIPDRFSGSKSGTSATLGITGLQTGDEADYYCGTWDNYLGAGVFGGGTKLTVLG | 7.81 |
| GLP1R-222-056 (antibody, V domains shown, IgG) VH: QVQLVESGGGVVQPGRSLRLSCAASGFPFSSYAMHWVRQAPGKGLEWVAVISYDRSNKYYADSVKGRFTISRDNSKNTLYLQMNSLRAEDTAVYYCAKHMSMQEGAVTGYGQAAKEFIAWLVKGFVRADLVGDAFDVWGQGTLVTVSS VL: QSVLTQPPSVSAAPGQKVTISCSGSSSNIGSNYISWYQQLPGTAPKLLIYDNDKRPAGIPDRFSGSKSGTSATLGITGLQTGDEADYYCGTWDTSLSVGEFGGGTKLTVL | 7.11 |
| GLP1R-222-012 (antibody, V domains shown, IgG) VH: QVQLVESGGGVVQPGRSLRLSCAASGFTFNNYGMHWVRQAPGKGLEWVAVISDEGSNKYYADSVKGRFTISRDNSKNTLYLQMNSLRAEDTAVYYCAKHMSMQEGAVTGVGQAAKEFIAWLVKGRVRADLVGDAFDVWGQGTLVTVSS VL: QSVLTQPPSVSAAPGQKVTISCSGSSSNIGNNDVSWYQQLPGTAPKLLIYDDDKRPSGIPDRFSGSKSGTSATLGITGLQTGDEADYYCGTWDTSLSVGEFGGGTKLTVL | 7.64 |

The record that follows has no pEC50 shown yet.
### Prompt pEC50 for GLP1R-222-014 (antibody, V domains shown, IgG) VH: QVQLVESGGGVVQPGRSLRLSCAASGFAFSNYGMHWVRQAPGKGLEWVSFISYDESNKYYADSVKGRFTISRDNSKNTLYLQMNNLRAEDTAVYYCAKHMSMQEGAVTGEWQAAKEFIAWLVKGRVRADLVGDAFDVWGQGTLVTVSS VL: QSVLTQPPSVSAAPGQKVTISCSGSSSNIGNHDVSWYQQLPGTAPKLLIYDNNKRHSGIPDRFSGSKSGTSATLGITGLQTGDEADYYCGTWDTSLSAGVFGGGTKLTVL ?
### Response 7.46
